- Procedure details: Mouse oral PK at 10 mg/kg
- Format: in vivo
- Condition description: male BALB/c mice, PO 10 mg/kg, plasma, Mean ± SD
Property: AUC (ng·h/mL)
Please respond with the number in ng·h/mL and leave the unit unwritten.

Lookup: Fill blank: measured AUC of the molecule O=C1CCC(N2Cc3cc(NC(=O)c4ccc(Cl)cc4)ccc3C2=O)C(=O)N1 (centres unmarked) [Compound 147] is ____.
Found: 1210

Lookup: Give the measured AUC of O=C1CCC(N2Cc3cc(NC(=O)c4ncn(-c5ccccc5)c4C(F)(F)F)ccc3C2=O)C(=O)N1 (centres unmarked) [Compound 154] .
Found: 50900

----------
- Procedure details: Mouse oral PK at 10 mg/kg
- Format: in vivo
- Condition description: male BALB/c mice, PO 10 mg/kg, plasma, Mean ± SD
Property: Cmax (ng/mL)
Form entry: value (ng/mL) — number only.

Lookup: Given O=C1CCC(N2Cc3cc(NC(=O)c4ncn(-c5ccccc5)c4C(F)(F)F)ccc3C2=O)C(=O)N1 (centres unmarked) , state its recorded Cmax.
Found: 12900

Lookup: // returns reported Cmax for input O=C1CCC(N2Cc3cc(NC(=O)c4ccc(Cl)cc4)ccc3C2=O)C(=O)N1 (centres unmarked)
Found: 574

----------
- Target entity: CRBN/DDB1 (Homo sapiens, UniProt Q96SW2)
- Sequence (Q96SW2 whole entry): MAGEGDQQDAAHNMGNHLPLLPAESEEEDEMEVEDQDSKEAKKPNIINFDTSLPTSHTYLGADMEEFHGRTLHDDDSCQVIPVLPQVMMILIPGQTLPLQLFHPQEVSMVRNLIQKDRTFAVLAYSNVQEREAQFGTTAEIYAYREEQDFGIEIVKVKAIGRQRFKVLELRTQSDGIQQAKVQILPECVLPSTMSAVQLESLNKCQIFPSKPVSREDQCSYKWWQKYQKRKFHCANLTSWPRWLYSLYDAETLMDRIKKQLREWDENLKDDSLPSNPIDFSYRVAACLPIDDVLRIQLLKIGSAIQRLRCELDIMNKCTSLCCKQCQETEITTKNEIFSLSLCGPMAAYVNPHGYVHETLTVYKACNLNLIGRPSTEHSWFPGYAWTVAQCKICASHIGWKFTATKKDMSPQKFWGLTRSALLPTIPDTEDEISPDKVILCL
- Sequence (Q16531 whole entry partner): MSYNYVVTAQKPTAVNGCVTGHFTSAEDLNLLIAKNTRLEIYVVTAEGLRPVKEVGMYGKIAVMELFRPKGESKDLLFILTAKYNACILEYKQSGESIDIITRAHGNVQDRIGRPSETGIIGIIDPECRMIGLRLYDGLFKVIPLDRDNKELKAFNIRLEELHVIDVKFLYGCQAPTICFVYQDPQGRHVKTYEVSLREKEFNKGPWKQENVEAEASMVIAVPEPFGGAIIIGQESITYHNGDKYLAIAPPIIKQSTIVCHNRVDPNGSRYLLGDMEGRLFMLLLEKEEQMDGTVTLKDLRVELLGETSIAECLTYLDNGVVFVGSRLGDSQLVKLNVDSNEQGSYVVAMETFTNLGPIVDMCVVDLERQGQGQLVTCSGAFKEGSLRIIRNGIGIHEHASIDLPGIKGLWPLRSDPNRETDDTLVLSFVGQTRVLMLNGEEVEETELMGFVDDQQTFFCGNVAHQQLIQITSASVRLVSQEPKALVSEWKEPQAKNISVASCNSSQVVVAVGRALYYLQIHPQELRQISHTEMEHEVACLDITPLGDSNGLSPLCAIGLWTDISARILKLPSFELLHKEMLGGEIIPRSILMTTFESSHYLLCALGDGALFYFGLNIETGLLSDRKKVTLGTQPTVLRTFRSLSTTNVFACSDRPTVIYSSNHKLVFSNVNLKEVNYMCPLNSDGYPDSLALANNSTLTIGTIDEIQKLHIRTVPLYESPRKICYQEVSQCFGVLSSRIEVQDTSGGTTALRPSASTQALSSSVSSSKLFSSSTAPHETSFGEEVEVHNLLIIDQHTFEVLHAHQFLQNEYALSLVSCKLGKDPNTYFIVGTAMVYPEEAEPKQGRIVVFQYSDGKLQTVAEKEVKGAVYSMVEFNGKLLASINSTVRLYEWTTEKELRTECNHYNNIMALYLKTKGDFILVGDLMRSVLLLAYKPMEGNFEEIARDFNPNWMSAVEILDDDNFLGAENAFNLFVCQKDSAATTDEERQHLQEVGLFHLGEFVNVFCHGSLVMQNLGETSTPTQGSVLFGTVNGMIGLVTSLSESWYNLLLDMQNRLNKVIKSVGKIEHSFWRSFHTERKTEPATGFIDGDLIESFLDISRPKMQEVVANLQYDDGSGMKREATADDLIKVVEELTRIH
- Procedure details: HTRF binding assay (thalidomide probe displacement from CRBN/DDB1)
- Condition description: CRBN/DDB1 2.5 nM, Cy5-Thalidomide 100 nM, 30 min; geometric mean; read-out: HTRF_Thali_Disp_DR—geo_IC50
Property: IC50

Lookup: So what does the record say about IC50 for Cc1c(C(=O)Nc2ccc3c(c2)CN(C2CCC(=O)NC2=O)C3=O)ncn1-c1ccccc1 (stereo not shown) ?
Found: 100 to 1000 nM

Lookup: What does the data say about its IC50? Entry: COc1cc2c(cc1NC(=O)c1ccc(Cl)cc1)CN(C1CCC(=O)NC1=O)C2=O (stereo not shown)
Found: 100 to 1000 nM

Lookup: Given the entry O=C1CCC(N2Cc3cc(NC(=O)c4ccc(Cl)cc4)ccc3C2=O)C(=O)N1 (stereo not shown) , report its measured IC50.
Found: 100 to 1000 nM

Lookup: Any idea what its IC50 is? The molecule is O=C1CCC(N2Cc3cc(NC(=O)c4cccc5c4CC(=O)N5)ccc3C2=O)C(=O)N1 (stereo not shown)
Found: ≤ 100 nM

----------
- Procedure details: Mouse oral PK at 10 mg/kg
- Assay type: in vivo
- Condition description: male BALB/c mice, PO 10 mg/kg, plasma
Exercise: state measured Tmax for each of the molecules provided.
Return type: number; implicit unit min.

Lookup: I have this molecule here, O=C1CCC(N2Cc3cc(NC(=O)c4ncn(-c5ccccc5)c4C(F)(F)F)ccc3C2=O)C(=O)N1 (centres unmarked) , and I need its recorded Tmax.
Found: 60

Lookup: // lookup Tmax for O=C1CCC(N2Cc3cc(NC(=O)c4ccc(Cl)cc4)ccc3C2=O)C(=O)N1 (centres unmarked)
Found: 30

----------
For each of the compounds below, state its DC50.
- Target entity: CK1α (Homo sapiens, UniProt P48729+Q96SW2)
- Construct: HEK293 clonal line with CRISPR KI HiBiT tag on CSNK1A1; host or cells: HEK293 clonal line, CRISPR HiBiT knock-in at CSNK1A1, stably expressing LgBiT
- Sequence (P48729 whole entry): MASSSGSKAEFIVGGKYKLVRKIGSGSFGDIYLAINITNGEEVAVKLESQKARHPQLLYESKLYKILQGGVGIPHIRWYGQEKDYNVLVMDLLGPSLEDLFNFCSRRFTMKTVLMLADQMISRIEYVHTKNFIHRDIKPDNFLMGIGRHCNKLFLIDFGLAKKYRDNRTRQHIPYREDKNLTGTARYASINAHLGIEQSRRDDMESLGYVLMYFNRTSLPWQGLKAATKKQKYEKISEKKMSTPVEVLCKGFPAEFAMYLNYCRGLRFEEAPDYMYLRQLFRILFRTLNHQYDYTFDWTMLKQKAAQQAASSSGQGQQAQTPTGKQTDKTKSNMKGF
- Sequence (Q96SW2 whole entry): as the sequence (Q96SW2 whole entry) above
- Sequence (Q16531 2-1140 partner limits assumed): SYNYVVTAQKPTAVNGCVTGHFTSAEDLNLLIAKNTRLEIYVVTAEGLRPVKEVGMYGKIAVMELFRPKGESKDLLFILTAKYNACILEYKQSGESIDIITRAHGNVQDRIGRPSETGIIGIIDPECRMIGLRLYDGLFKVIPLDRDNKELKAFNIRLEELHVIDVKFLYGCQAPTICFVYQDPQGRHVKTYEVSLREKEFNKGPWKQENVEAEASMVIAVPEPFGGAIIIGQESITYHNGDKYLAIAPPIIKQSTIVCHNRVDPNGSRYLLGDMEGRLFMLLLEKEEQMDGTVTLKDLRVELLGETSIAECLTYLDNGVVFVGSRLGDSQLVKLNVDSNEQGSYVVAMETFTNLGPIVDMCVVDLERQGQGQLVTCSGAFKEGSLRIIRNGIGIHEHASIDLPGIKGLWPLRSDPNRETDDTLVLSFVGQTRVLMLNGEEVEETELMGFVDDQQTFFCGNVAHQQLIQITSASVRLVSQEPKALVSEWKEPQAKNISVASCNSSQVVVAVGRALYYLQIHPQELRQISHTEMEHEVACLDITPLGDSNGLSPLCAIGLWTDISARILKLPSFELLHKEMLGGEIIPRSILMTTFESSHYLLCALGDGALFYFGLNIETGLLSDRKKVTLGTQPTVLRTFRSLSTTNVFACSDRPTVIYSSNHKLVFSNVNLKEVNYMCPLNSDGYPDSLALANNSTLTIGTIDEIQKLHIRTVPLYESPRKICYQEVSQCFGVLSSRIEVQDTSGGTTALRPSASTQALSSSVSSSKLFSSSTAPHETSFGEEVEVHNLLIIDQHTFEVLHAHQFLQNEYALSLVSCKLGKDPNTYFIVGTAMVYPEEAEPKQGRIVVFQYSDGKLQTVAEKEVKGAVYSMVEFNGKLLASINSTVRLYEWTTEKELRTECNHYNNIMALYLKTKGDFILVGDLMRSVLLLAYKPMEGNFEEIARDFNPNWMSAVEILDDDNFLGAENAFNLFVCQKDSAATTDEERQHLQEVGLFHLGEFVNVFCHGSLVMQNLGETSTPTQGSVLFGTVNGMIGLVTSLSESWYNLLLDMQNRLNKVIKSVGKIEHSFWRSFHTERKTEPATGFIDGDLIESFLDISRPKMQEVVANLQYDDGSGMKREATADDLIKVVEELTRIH
- Procedure details: CK1α NanoBiT assay (HiBiT-tagged CSNK1A1 in HEK293 clonal line)
- Type: cell-based
- Condition description: HEK293 HiBiT-CSNK1A1/LgBiT cells, 24 h incubation, luminescence
Where a name gives a salt, the structure may show the parent alone.

Lookup: Give the measured DC50 of O=C1CCC(N2Cc3cc(NC(=O)c4ccccc4C4CCCC4)ccc3C2=O)C(=O)N1 (stereo not drawn) [Compound 128, formate] .
Found: > 1 µM

Lookup: So what's the measured DC50 for this one? Cn1ccnc1C(=O)Nc1ccc2c(c1)CN(C1CCC(=O)NC1=O)C2=O (stereo not drawn)
Found: > 1 µM

Lookup: Need DC50, item N#Cc1ccc(C(=O)Nc2ccc3c(c2)CN(C2CCC(=O)NC2=O)C3=O)cc1 (stereo not drawn)
Found: 0.1 to 1 µM

Lookup: Entry Cc1cc(CC(=O)Nc2ccc3c(c2)CN(C2CCC(=O)NC2=O)C3=O)ccc1Cl (stereo not drawn) : reported DC50 = ?
Found: 0.1 to 1 µM

Lookup: For CCc1ccccc1C(=O)Nc1ccc2c(c1)CN(C1CCC(=O)NC1=O)C2=O (stereo not drawn) , what is its reported DC50?
Found: 0.1 to 1 µM

Lookup: Please give the measured DC50 for this compound: O=C1CCC(N2Cc3cc(NC(=O)c4ccccc4Cl)ccc3C2=O)C(=O)N1 (stereo not drawn)
Found: < 0.1 µM

Lookup: // query DC50 value for entry O=C1CCC(N2Cc3cc(NC(=O)c4ccccc4CC(F)(F)F)ccc3C2=O)C(=O)N1 (stereo not drawn)
Found: 0.1 to 1 µM

Lookup: Please look up its DC50: O=C1CCC(N2Cc3cc(NC(=O)c4ncco4)ccc3C2=O)C(=O)N1 (stereo not drawn)
Found: < 0.1 µM

Lookup: // lookup DC50 for O=C1CCC(N2Cc3cc(NC(=O)c4cccc5c4CC(=O)N5)ccc3C2=O)C(=O)N1 (stereo not drawn)
Found: 0.1 to 1 µM

Lookup: What value of measured DC50 is listed for O=C1CCC(N2Cc3cc(NC(=O)Cc4ccccc4)ccc3C2=O)C(=O)N1 (stereo not drawn) ?
Found: 0.1 to 1 µM

Lookup: DC50 lookup needed for O=C1CCC(N2Cc3cc(NC(=O)c4ncccc4Cl)ccc3C2=O)C(=O)N1 (stereo not drawn) , thanks.
Found: 0.1 to 1 µM

Lookup: Can you share its DC50? I mean this compound: O=C1CCC(N2Cc3cc(NC(=O)c4cn(-c5ccccc5)cn4)ccc3C2=O)C(=O)N1 (stereo not drawn)
Found: < 0.1 µM

Lookup: Entry under review: Cc1nc(C(=O)Nc2ccc3c(c2)CN(C2CCC(=O)NC2=O)C3=O)cn1-c1ccccc1 (stereo not drawn) . Reported DC50?
Found: < 0.1 µM

Lookup: // lookup DC50 for Cc1ccccc1C(=O)Nc1ccc2c(c1)CN(C1CCC(=O)NC1=O)C2=O (stereo not drawn)
Found: 0.1 to 1 µM

Lookup: Look up DC50 for this compound: CC(C)Cc1ccccc1C(=O)Nc1ccc2c(c1)CN(C1CCC(=O)NC1=O)C2=O (stereo not drawn)
Found: 0.1 to 1 µM

Lookup: Any idea what DC50 was measured for Cc1c(C(=O)Nc2ccc3c(c2)CN(C2CCC(=O)NC2=O)C3=O)ncn1-c1ccccc1 (stereo not drawn) ?
Found: < 0.1 µM

Lookup: // lookup DC50 for O=C1CCC(N2Cc3cc(NC(=O)c4ccccn4)ccc3C2=O)C(=O)N1 (stereo not drawn)
Found: 0.1 to 1 µM

Lookup: Give its DC50 value. Item: O=C1CCC(N2Cc3cc(NC(=O)c4ccc(Cl)cc4)ccc3C2=O)C(=O)N1 (stereo not drawn)
Found: < 0.1 µM

Lookup: I am curious: what DC50 value has been reported for O=C1CCC(N2Cc3cc(NC(=O)c4ncc[nH]4)ccc3C2=O)C(=O)N1 (stereo not drawn) ?
Found: 0.1 to 1 µM

Lookup: DC50 for N#Cc1ccccc1C(=O)Nc1ccc2c(c1)CN(C1CCC(=O)NC1=O)C2=O (stereo not drawn) ?
Found: > 1 µM

Lookup: Recorded DC50 of O=C1CCC(N2Cc3cc(NC(=O)Cc4ccccn4)ccc3C2=O)C(=O)N1 (stereo not drawn) , please.
Found: > 1 µM

Lookup: Bench note: what DC50 did Cc1ccc(C(=O)Nc2ccc3c(c2)CN(C2CCC(=O)NC2=O)C3=O)cn1 (stereo not drawn) show?
Found: 0.1 to 1 µM

Lookup: // lookup DC50 for O=C1CCC(N2Cc3cc(NC(=O)c4nccs4)ccc3C2=O)C(=O)N1 (stereo not drawn)
Found: 0.1 to 1 µM

Lookup: What measured DC50 goes with O=C1CCC(N2Cc3cc(NC(=O)c4ccc(F)cc4)ccc3C2=O)C(=O)N1 (stereo not drawn) ?
Found: < 0.1 µM

Lookup: Give the measured DC50 of O=C1CCC(N2Cc3cc(NC(=O)c4cccc(Cl)c4)ccc3C2=O)C(=O)N1 (stereo not drawn) .
Found: < 0.1 µM

Lookup: Param item = Cc1cc2c(cc1NC(=O)c1ccccc1)CN(C1CCC(=O)NC1=O)C2=O (stereo not drawn) ; retrieve measured DC50.
Found: > 1 µM

Lookup: State the recorded DC50 for this entry: Cc1ccc(CC(=O)Nc2ccc3c(c2)CN(C2CCC(=O)NC2=O)C3=O)cn1 (stereo not drawn)
Found: > 1 µM

Lookup: Requested read-out: DC50. Entry: N#Cc1cccc(C(=O)Nc2ccc3c(c2)CN(C2CCC(=O)NC2=O)C3=O)c1 (stereo not drawn)
Found: 0.1 to 1 µM

Lookup: State the recorded DC50 for this entry: O=C1CCC(N2Cc3cc(N(CC(F)(F)F)C(=O)c4ccc(Cl)cc4)ccc3C2=O)C(=O)N1 (stereo not drawn)
Found: > 1 µM

Lookup: Query (compound): Cn1ccc(C(=O)Nc2ccc3c(c2)CN(C2CCC(=O)NC2=O)C3=O)n1 (stereo not drawn) ; field requested: DC50
Found: 0.1 to 1 µM

Lookup: For Cc1ccc(C(=O)Nc2ccc3c(c2)CN(C2CCC(=O)NC2=O)C3=O)cc1 (stereo not drawn) , what is its reported DC50?
Found: < 0.1 µM

Lookup: Given O=C1CCC(N2Cc3cc(N4C(=O)c5ccccc5C4=O)ccc3C2=O)C(=O)N1 (stereo not drawn) , state its recorded DC50.
Found: > 1 µM

Lookup: Entry O=C1CCC(N2Cc3cc(NC(=O)c4cnccn4)ccc3C2=O)C(=O)N1 (stereo not drawn) has what DC50?
Found: > 1 µM

Provenance of the data: patent US20250115582A1
